Could you please report measured growth for the items listed next?
system: NCI-H23 lung; assay: NCI-60 one-dose screen, 48 h (100 = growth as untreated, 0 = no growth, -100 = all killed); details: 10 µM unless noted
The panel holds about 83,000 compounds, 20% with a hit somewhere; the sample as a whole holds those more often.
Just the number in %, nothing appended.

Returns the measured growth for the input compound. Input: `O=C1NC(=O)C(Cc2ccccc2)(Cc2ccccc2)C(=O)N1`
111

Next entry: `CN(C)P1(N(C)C)=NP(N(C)C)(N(C)C)=NP(N(C)C)(N(C)C)=N1`
106

Same read-out for CC(C)C1c2ccc(O)cc2Oc2nc(N)c(C#N)c(N)c21 (stereo not given) ?
105

Query `CC(=O)N(C)C1=Nc2ccc(Cl)cc2C(c2ccccc2)=[N+]([O-])C1` next
101

One more compound: `CNC(=O)Oc1cc(C(C)C)ccc1Sc1ccc(C(C)C)cc1OC(=O)NC`
76.4

---

tested on: HL-60(TB) leukemia; assay: NCI-60 one-dose screen, 48 h (100 = growth as untreated, 0 = no growth, -100 = all killed); details: 10 µM unless noted
The panel holds about 83,000 compounds, 20% with a hit somewhere; the sample as a whole holds those more often.
The threshold is 80%. Values of growth beneath it are tagged fulfilled; values meeting or exceeding it are tagged not fulfilled.

Determine whether this molecule shows growth lower than 80% (ties excluded): `O=C(Cc1nc2cc(Cl)c(Cl)cc2nc1CC(=O)c1cccnc1)c1cccnc1`
fulfilled

And for `Cc1nc(S(=O)(=O)c2ccccc2)c(S(=O)(=O)Cc2ccc([N+](=O)[O-])cc2)o1` ?
not fulfilled

Now consider `CC(=O)Nc1c(Cl)cc(Cl)c2c1Cc1cc([N+](=O)[O-])ccc1-2` .
not fulfilled

Note, next up: `COc1cc2c3c(n([C@H]4CCOC4)c(=O)c2cc1OC)-c1cc2c(cc1C3=O)OCO2`
fulfilled

Quick one: `O=C(/C=C/c1ccc(Cl)cc1)/C=C/c1cc2ccccc2[nH]c1=O`
fulfilled

Queued: COc1ccc(S(=O)(=O)NC2c3ccccc3CC2O)cc1OC (stereo not drawn)
not fulfilled

Same lookup for `CC(=O)N[C@@H](CNC(=O)c1cc(NC(=O)c2cc(NC(=O)c3cc(NC(=O)c4nccn4C)cn3C)cn2C)cn1C)CC(=O)Nc1cn(C)c(C(=O)Nc2cc(C(=O)Nc3cc(C(=O)Nc4cc(C(=O)NCCCN(C)CCCNC(=O)c5cccc(C(=O)O)c5)n(C)c4)n(C)c3)n(C)c2)n1` , please.
not fulfilled

---

tested on: SW-620 colon; assay: NCI-60 one-dose screen, 48 h (100 = growth as untreated, 0 = no growth, -100 = all killed); details: 10 µM unless noted
The panel holds about 83,000 compounds, 20% with a hit somewhere; the sample as a whole holds those more often.
For each of the molecules below, state its growth.
Reply with just the number (in %).

Requested read-out growth, target or system SW-620 colon, entry `Cc1ccc(C[As+](c2ccccc2)(c2ccccc2)c2ccccc2)cc1`
11.9

Another molecule: `Nc1ccc([N+](=O)[O-])c2c1Oc1ccccc1O2`
104

Try this molecule next: `CC1(C)N=C(N)N=C(N)N1c1ccc(CCCCc2ccc(Cl)cc2S(=O)(=O)F)c(Cl)c1`
11.9

# repeat for `CCOc1cc(C=C(C#N)C#N)cc(Br)c1O`
106

Now consider `S=P(NC1CCCCC1)(N1CC1)N1CC1` .
96.5

Further, for CC12CCC(=O)C=C1C(O)CC1C2CCC2(C)C(O)CCC12 (stereo not given) ?
109

Item: `CO[C@@H]1[C@H](OC(=O)NC(=O)CCl)CC[C@]2(CO2)[C@H]1[C@@]1(C)O[C@@H]1CC=C(C)C`
49.4

Continue with N#C[Se]CCCNS(=O)(=O)C1CC2C=CC1C2 (stereo not given)
1.26

Repeat with `CC(C)(NC(=O)c1nn(CCCCCF)c2ccccc12)c1ccccc1`
102

Then Nc1ncnc2c1c(C(=O)NO)cn2C1OC(CO)C(O)C1O (stereo not given) ?
-3.16

Please do the same for `Nc1c(Br)cc([N+](=O)[O-])cc1[N+](=O)[O-]` as well.
103

Item: `O=C1NC(=O)C(Cc2ccccc2)(Cc2ccccc2)C(=O)N1`
107

Next molecule: `CC[C@]12C=CCN3CC[C@@]4(c5ccc(OC)cc5N(C)[C@H]4[C@@](O)(C(=O)OC)[C@@H]1OC(=O)CCCN1CCN(CCCC(=O)O[C@@H]4[C@]5(CC)C=CCN6CC[C@@]7(c8ccc(OC)cc8N(C)[C@H]7[C@@]4(O)C(=O)OC)[C@@H]65)CC1)[C@@H]32`
-81.9

// repeat for OC1(c2ccccc2F)c2ccccc2C2=NCCN21 (stereo not given) and report
96.8

And the next one, `O=C(O)c1nn(Cc2ccc(Cl)cc2)c2ccccc12` ?
105

Same question, `Cc1cc(NC(=O)NCCOc2ccc(N3C(N)=NC(N)=NC3(C)C)cc2Cl)ccc1S(=O)(=O)F` this time
23.4

Query `CC1(C)N=C(N)N=C(N)N1c1ccc(OCCCCNC(=O)Nc2cccc(S(=O)(=O)F)c2)c(Cl)c1` next
27.1

Can you check `O=C1NC(=O)C(=Cc2cn(Cc3ccccc3)c3ccccc23)C(=O)N1` next?
83.6

Next molecule up: `C[CH2][Sn]([CH2]C)([CH2]C)[NH]S(=O)(=O)c1ccc(C)cc1`
101

Field entry: `Cc1cccc(N(C)c2cccc3c2C(=O)[Se]C3)c1C`
67.1

---

system: SF-268 CNS; assay: NCI-60 one-dose screen, 48 h (100 = growth as untreated, 0 = no growth, -100 = all killed); settings: 10 µM unless noted
Compounds without any hit were thinned out: in the full panel of roughly 83,000, 20% have a hit.
ASSAY METRIC: growth (%)
Write it as a number; the unit % goes unstated.

Which growth is reported for this compound? `CC[CH2][Pb]([CH2]CC)([CH2]CC)[O]C(=O)C(F)(F)F`
-82.3

How about this compound: Fc1ccc(C2=NN(c3ccccc3)C(c3sc(N(CCCl)CCCl)nc3Cl)C2)cc1 (stereo not given)
86.5

Okay, and `Oc1c(Br)cc(Br)cc1Br.[Cu+2]` ?
105

Same question, `CC(=O)Oc1ccc(Cl)cc1` this time
83.6

Thanks! And `Cc1ccccc1O` ?
109

Now give it for CC1([N+](=O)[O-])COP(=O)(Nc2ccc(F)cc2)OC1 (stereo not given) too.
99.7

`C1CN1c1nc(N2CC2)nc(N2CC2)n1` , same question.
30.4

Consider next the compound `CCN(CC)c1ccc(C=C2C(=O)NC(=S)NC2=O)cc1` in the same way.
80.1

Subsequent entry: `C/C(=C\c1cc(C(F)(F)F)n(-c2ccc(N)cc2)n1)[C@@H]1C[C@@H]2O[C@]2(C)CCC[C@H](C)[C@H](O)[C@@H](C)C(=O)C(C)(C)[C@@H](O)CC(=O)O1`
6.48

Lookup `C[C@]12CC[C@@H]3c4ccc(OC(=O)Cc5ccc(N(CCCl)CCCl)cc5)cc4CC[C@H]3[C@@H]1CC[C@@H]2OC(=O)Cc1ccc(N(CCCl)CCCl)cc1`
108

---

test system: HL-60(TB) leukemia; assay: NCI-60 one-dose screen, 48 h; settings: 10 µM unless noted
About 83,000 compounds went through this panel and 20% of them were active in at least one assay; those are over-represented in the sample as a whole. Calls of active or inactive are those of the source. How the source made its calls: active means growth percent below 10; inactive means the rest.
Result category, one only: active, inactive

Would you mind telling me which call this test gave `COc1ccc(-c2nc3sccn3c2/C=C/C(=O)c2cc(OC)c(OC)c(OC)c2)cc1` ?
inactive

Let us now turn to CN(C)CC1(C)Cc2ccsc2C1O (centres undefined)
inactive

Same for `CCOC(=O)C(=Cc1ccc(C#N)cc1)C(=O)OCC`
active

Again, but for `C[C@H](C(=O)Nc1ccc(S(N)(=O)=O)cc1)S(=O)(=O)c1ccccc1`
inactive

Moving on to the next compound: `Cc1ccc(C(=NN=C(N)N)c2ccc(C)cc2)cc1`
active

Repeat with `Cc1nn(-c2ccccc2)c2nc3c(c(-c4ccc(Cl)cc4)c12)CNC1(CCSCC1)N3`
inactive

And for `O=C1Nc2ccccc2/C1=N/N=C/c1c[nH]c2ccccc12` ?
inactive

Also, `Cc1cc(N2CCOCC2)nc(N(CCNc2ccnc3cc(Cl)ccc23)Cc2cccs2)n1` please.
active

Same again, this time with `CC1(C)CC(=O)c2c(nc3ccc(Cl)cc3c2-c2ccccc2)C1`
inactive

Further, for CC1c2ccccc2-c2ccccc2N1C (centres undefined) ?
inactive

Also, `CCOC(=O)c1nnn(-c2ccccc2)c1C1=CN(C)CCC1` please.
inactive

Likewise for `[O-][n+]1c(Cl)cc(Cl)c2ccccc21` ?
inactive

Again, but for `CN1CCN(Cc2ccc(NC(=O)c3cncc(C#Cc4nc(N)nc5[nH]ncc45)c3)cc2C(F)(F)F)CC1`
active

OCC(O)C(O)C(O)C(/C=N/Nc1ccccc1)=N/Nc1ccccc1 (centres undefined) ?
inactive

Now try `CN1CCN(c2cnc(C(=O)Nc3cc(F)cc4cccnc34)cn2)CC1` .
active

Next entry: `COc1ccc(N=N/N=c2\sc3cc(OC)ccc3n2C)cc1`
inactive

Entry to check: `O=[N+]([O-])c1cc(Br)c2cccc3c2c1CC3`
inactive

Try `COc1ccc(Cl)cc1NC(=O)c1cc2c([nH]1)-c1nc(N)sc1CCC2` next.
inactive

Proceed to COc1cc(C2CC(c3ccc(C)cc3)=NN2C=O)ccc1OCCN(C)C (centres undefined)
inactive

Now the same for `N=C(N)c1ccc(-c2ccc(-c3ccc(Cl)cc3Cl)o2)cc1`
active

Can you check `COc1cc2nc(Sc3sc(N)nc3C)n(-c3ccc(Oc4ccccc4)cc3)c(=O)c2cc1OC` next?
inactive

Next compound up: `CCc1ccc(/C=C/c2ccc(O)c3ncccc23)[n+](C)c1`
inactive

Could you do the same for `Cn1c2ccc(Cl)cc2c2nn(C(=O)c3ccccc3)c(=O)nc21` , please?
inactive

Consider next the compound CCCC1(c2ccccc2)NC(=O)NC1=O (centres undefined) in the same way.
inactive

// next record O=C1CC(c2ccsc2)c2snc(-c3ccc(Cl)cc3)c2N1 (centres undefined)
inactive

Please give the result for CS(=O)(=O)c1ccc(-c2cc3c(oc2=O)-c2ccccc2OC3O)cc1 (centres undefined) too.
inactive

Would you mind doing `COc1ccc(/C=C(/c2ccccc2)[N+](=O)[O-])c(OC)c1` as well?
active

Please do the same for `O=C(OCCCCOC(=O)n1cnc2ccccc21)n1cnc2ccccc21` as well.
inactive

What do we get for `Cc1cc(N2CCN(CCNc3ccnc4cc(Cl)ccc34)CC2)nc(N2CCOCC2)n1` ?
inactive

Proceed to COc1ccc(C2CC(c3ccc(Cl)cc3)=NN2/C=C2\SC(=S)N(NC(=O)Cc3ccccc3Nc3c(Cl)cccc3Cl)C2=O)cc1 (centres undefined)
inactive

Now this one: `O=C1/C(=C/c2ccc(F)cc2)C=C(c2ccccc2)N1CCc1ccccc1`
inactive

And for `Cc1ccc2c(c1)sc1nc(-c3c[nH]c4ccccc34)c(Nc3ccccc3)n12` ?
inactive

Another compound to check: `c1cc2ccc3cc2cc1CNCCOCCNCc1ccc2ccc(cc2c1)CNCCOCCNC3`
inactive

Can you check `CCCCNc1nc(NC(C)(C)C)nc(NC(C)(C)C)n1` next?
inactive

Now try `COc1cc(/C=N/NC(=O)c2ccc3nc(-c4ccc(Cl)cc4)[nH]c3c2)cc(OC)c1OC` .
inactive

// next record `COc1ccccc1N1C(=N)S/C(=C\c2ccc(OCc3ccccc3F)cc2)C1=O`
inactive

What do you get for O=C(c1ccccc1)C(Br)[N+](=O)[O-] (centres undefined) ?
inactive

Continue with `O=C1c2ccc3c4c(ccc(c24)C(=O)N1CCCNCc1ccccc1Cl)C(=O)N(CCCNCc1ccccc1Cl)C3=O`
active

// same read-out, input: `COc1cc(-c2nc3occn3c2-c2ccnc(NCCCNS(=O)(=O)c3ccc(O)cc3)n2)ccc1F`
inactive

Record: `Cc1ccc2nc(-c3ccc(N(C)C)c(Br)c3)cn2c1`
inactive

Can you check `CCOc1cc(/C=N\NC(=O)N/N=C/c2ccc(O)c(OCC)c2)ccc1O` next?
active

Same question for O=C(O)CC(Br)C(=O)CBr (centres undefined) please.
inactive

Cool, now OC1(c2ccc(Cl)cc2Cl)c2ccccc2C2=NCCN21 (centres undefined)
inactive

Follow-up item: `Clc1ccc(Oc2ccc(Nc3ncnc4onc(-c5ccccc5)c34)cc2)c(Cl)c1`
inactive
